Biological target: human steroid 5-α-reductase (Homo sapiens, UniProt P31213)
Construct: Frozen human prostates were thawed and minced into small pieces; from tissue; host or cells: hyperplastic human prostate, washed 140,000×g particulate fraction
Sequence (P31213 1-254): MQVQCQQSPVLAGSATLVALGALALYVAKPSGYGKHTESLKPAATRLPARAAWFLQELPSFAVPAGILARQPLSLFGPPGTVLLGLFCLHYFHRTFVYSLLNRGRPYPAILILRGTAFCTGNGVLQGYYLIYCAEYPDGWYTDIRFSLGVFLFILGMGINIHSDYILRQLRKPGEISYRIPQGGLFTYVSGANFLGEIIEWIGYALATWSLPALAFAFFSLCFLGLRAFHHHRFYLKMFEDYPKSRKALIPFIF
Assay: inhibition of human steroid 5-α-reductase using tissue from hyperplastic human prostates
Assay type: biochemical
Conditions: human prostatic particulate enzyme; [14C]-testosterone substrate; pH 5.0, 37° C., 20 to 30 minutes; Dixon plot, assuming competitive inhibition against testosterone; read-out: inhibition constant (Ki)
outcome.measure: Ki (nM)
Answers are plain numbers, in nM.

Q) # get_value(readout='Ki', item= `CC(C)N(C(=O)[C@H]1CC[C@H]2[C@@H]3CC[C@H]4C=C([N+](=O)[O-])CC[C@]4(C)[C@H]3CC[C@]12C)C(C)C` )
A) 50

Reference source: patent US4970204A
